assayProtocol: Stability in human liver microsomes
Assay type: in vitro ADME
settings: 37° C., NADPH
readoutKind: percent of compound remaining after 60 min in human liver microsomes

Reference set (8 entries):
CC(C)(CO)c1cc(-c2cc(-c3ccc(NC(=O)OC4CC4)cc3Cl)cs2)ccn1; ++ (30.1-60 = ++)
CC(C)OC(=O)Nc1ccc(-c2cc(-c3ccnc(C(C)(C)C)c3)cs2)c(Cl)c1; +++ (>60.1 = +++)
CC(C)(CN)c1cc(-c2csc(-c3ccc(NS(C)(=O)=O)cc3Cl)c2)ccn1; +++ (>60.1 = +++)
CC(C)(C)c1cc(-c2csc(-c3ccc(S(=O)(=O)CC4CCCC4)cc3)c2)ccn1; + (0-30 = +)
CC(C)(C)c1cc(-c2csc(-c3ccc(NC(=O)NC4CCC(O)CC4)cc3Cl)c2)ccn1 (stereo not shown); +++ (>60.1 = +++)
CC(C)(C)c1cc(-c2csc(-c3ccc(NC(=O)NCCN4CCCC4)cc3Cl)c2)ccn1; +++ (>60.1 = +++)
CC(C)OC(=O)Nc1ccc(-c2cc(-c3ccnc(C4CC4)c3)cs2)c(Cl)c1; +++ (>60.1 = +++)
CC(C)OC(=O)Nc1ccc(-c2cc(-c3ccnc(C4(CO)CC4)c3)cs2)c(Cl)c1; +++ (>60.1 = +++)

Problem: // lookup percent of compound remaining after 60 min in human liver microsomes for CS(=O)(=O)Nc1ccc(-c2cc(-c3ccnc(O[C@@H]4CCC[C@@H]4O)c3)cs2)c(Cl)c1
Solution: +++ (>60.1 = +++)

Problem: // repeat for CC(O)(CO)c1cc(-c2csc(-c3ccc(NS(C)(=O)=O)cc3Cl)c2)ccn1 (stereo not shown) and report
Solution: +++ (>60.1 = +++)

Problem: Param item: CC(C)NS(=O)(=O)Nc1ccc(-c2csc(-c3ccnc(C(C)(C)CO)c3)c2)c(Cl)c1
Solution: + (0-30 = +)

Problem: Another: CN(C(=O)OC1CC1)c1ccc(-c2cc(-c3ccnc(C4(CO)CC4)c3)cs2)c(Cl)c1
Solution: ++ (30.1-60 = ++)

###

assayProtocol: Stability in mouse liver microsomes
Format: in vitro ADME
readoutKind: percent parent remaining after 60 min in liver microsomes

CS(=O)(=O)Nc1ccc(-c2cc(-c3ccnc(O[C@@H]4COC[C@@H]4O)c3)cs2)c(Cl)c1; +++ (>60.1 = +++)
CC(C)(C)c1cc(-c2csc(-c3ccc(S(C)(=O)=O)cc3)c2)ccn1; +++ (>60.1 = +++)
O=C(Nc1ccc(-c2cc(-c3ccnc(C4(CO)CC4)c3)cs2)c(Cl)c1)OC1CC1; ++ (30.1-60 = ++)
CCOC(=O)Nc1ccc(-c2cc(-c3ccnc(C(C)(C)C)c3)cs2)c(Cl)c1; +++ (>60.1 = +++)
O=S(=O)(Nc1ccc(-c2cc(-c3ccnc(C4(CO)CC4)c3)cs2)c(Cl)c1)NC1CC1; ++ (30.1-60 = ++)
CC(C)(CO)c1cc(-c2csc(-c3ccc(N4CCOC4=O)cc3Cl)c2)ccn1; +++ (>60.1 = +++)

Problem: What value of measured percent parent remaining after 60 min in liver microsomes is listed for CC(C)(CO)c1cc(-c2csc(-c3ccc(NC(=O)OC4CC4)cc3Cl)c2)ccn1 ?
Solution: ++ (30.1-60 = ++)

Problem: Repeat for the following compound: CC(C)(C)c1cc(-c2csc(-c3ccc(NC(=O)NCCN4CCCC4)cc3Cl)c2)ccn1
Solution: +++ (>60.1 = +++)

Problem: Would you mind doing Cc1sc(-c2ccc(NS(C)(=O)=O)cc2Cl)cc1-c1ccnc(CC(C)(C)O)c1 as well?
Solution: +++ (>60.1 = +++)

###

Tested on: SREBP
assayProtocol: Reporter Screening Assay (SRE-luciferase reporter, HepG2)
Assay type: cell-based
settings: Homo sapiens; SRE-luciferase reporter HepG2 cells, 24 hours, 0.01 uM to 10 uM; read-out: I: Reporter Screening Assay (Ave EC50 (nM))
readoutKind: EC50

Please review the entries below; each comes with its answer.
CC(C)(C)c1cc(-c2csc(-c3ccc(NC(=O)NCCN4CCCC4)cc3Cl)c2)ccn1; > 500 nM
CN(C(=O)OC1CC1)c1ccc(-c2cc(-c3ccnc(C4(CO)CC4)c3)cs2)c(Cl)c1; < 249 nM
CC(C)OC(=O)Nc1ccc(-c2cc(-c3ccnc4c3OCCO4)cs2)c(Cl)c1; < 249 nM

Now consider a different compound.
Problem: Give the measured EC50 of CC(C)(O)Cc1cc(-c2csc(-c3ccc(NS(C)(=O)=O)cc3Cl)c2)ccn1 .
Solution: < 249 nM

###

Tested on: SKHEP1
assayProtocol: Cancer cell growth inhibition
Assay type: cell-based
settings: Homo sapiens, SK-HEP1; SKHEP1 (liver), 72 hr treatment
Quick reference: IC50 of the listed items.

Example cases with answers are listed next.
CC(C)(CO)c1cc(-c2csc(-c3ccc(NS(C)(=O)=O)cc3Cl)c2)ccn1; < 10 µM
CC(C)(O)Cc1cc(-c2csc(-c3ccc(NS(C)(=O)=O)cc3Cl)c2)ccn1; < 10 µM

Now for another entry.
Problem: I have this compound here, CS(=O)(=O)Nc1ccc(-c2cc(-c3ccnc4c3OCCO4)cs2)c(Cl)c1 , and I need its recorded IC50.
Solution: < 10 µM

###

System: MINO
assayProtocol: Cancer cell growth inhibition
Format: cell-based
settings: Homo sapiens; MINO (hematological), 72 hr treatment
Consider the following compounds and their measured IC50 readings.

Examples from the recorded data:
CC(C)(CO)c1cc(-c2csc(-c3ccc(NS(C)(=O)=O)cc3Cl)c2)ccn1; < 10 µM
CS(=O)(=O)Nc1ccc(-c2cc(-c3ccnc4c3OCCO4)cs2)c(Cl)c1; < 10 µM

Problem: What is its IC50 for MINO? Entry: CC(C)(O)Cc1cc(-c2csc(-c3ccc(NS(C)(=O)=O)cc3Cl)c2)ccn1
Solution: < 10 µM

###

System: CACO2
assayProtocol: Cancer cell growth inhibition
Assay type: cell-based
settings: Homo sapiens, Caco-2; CACO2 (colon), 72 hr treatment
IC50 reference

Below: 2 compounds and their reported IC50.
CS(=O)(=O)Nc1ccc(-c2cc(-c3ccnc4c3OCCO4)cs2)c(Cl)c1 [Compound I-9017]; < 10 µM
CC(C)(O)Cc1cc(-c2csc(-c3ccc(NS(C)(=O)=O)cc3Cl)c2)ccn1 [Compound I-9004]; < 10 µM

Next:
Problem: Entry CC(C)(CO)c1cc(-c2csc(-c3ccc(NS(C)(=O)=O)cc3Cl)c2)ccn1 [Compound I-8909] : reported IC50 = ?
Solution: < 10 µM

###

Test system: SREBP
assayProtocol: Reporter Screening Assay (SRE-luciferase reporter, HepG2)
Format: cell-based
settings: Homo sapiens; SRE-luciferase reporter HepG2 cells, 24 hours, 0.01 uM to 10 uM; read-out: I: Reporter Screening Assay (Ave EC50 (nM))
readoutKind: EC50

Before answering, review these 6 worked examples.
CC(C)(O)c1cc(-c2csc(-c3ccc(NS(C)(=O)=O)cc3Cl)c2)ccn1; < 249 nM
CC(C)(C#N)c1cc(-c2csc(-c3ccc(NS(C)(=O)=O)cc3Cl)c2)ccn1; > 500 nM
CS(=O)(=O)Nc1ccc(-c2cc(-c3ccnc(O[C@@H]4COC[C@@H]4O)c3)cs2)c(Cl)c1; > 500 nM
CC(C)(O)C(O)c1cc(-c2csc(-c3ccc(NS(C)(=O)=O)cc3Cl)c2)ccn1 (stereo not shown); > 500 nM
CC(C)OC(=O)Nc1ccc(-c2cc(-c3ccnc(OC4CC4)c3)cs2)c(Cl)c1; < 249 nM
O=C(Nc1ccc(-c2cc(-c3ccnc(C4(CO)CC4)c3)cs2)c(Cl)c1)OC1CC1; > 500 nM

Alright, here's another molecule for you.
Problem: Recorded EC50 for CC(C)(CO)c1cc(-c2csc(-c3ccc(NC(=O)OC4CC4)cc3Cl)c2)ccn1 , please?
Solution: 250 to 500 nM

###

System: SREBP
assayProtocol: Reporter Screening Assay (SRE-luciferase reporter, HepG2)
Format: cell-based
settings: Homo sapiens; SRE-luciferase reporter HepG2 cells, 24 hours, 0.01 uM to 10 uM; read-out: I: Reporter Screening Assay (Ave EC50 (nM))
Listing of entries alongside the reported EC50.

Please review the entries below; each comes with its answer.
CC(C)OC(=O)Nc1ccc(-c2cc(-c3ccnc(C4CC4)c3)cs2)c(Cl)c1; < 249 nM
CN(C(=O)OC1CC1)c1ccc(-c2cc(-c3ccnc(C4CC4)c3)cs2)c(Cl)c1; < 249 nM
CC(C)OC(=O)Nc1ccc(-c2cc(-c3ccnc(C(C)(C)CO)c3)cs2)c(Cl)c1; 250 to 500 nM

Continue with the compound presented below.
Problem: GET /values?readout=EC50&item= CCOC(=O)Nc1ccc(-c2cc(-c3ccnc(C(C)(C)C)c3)cs2)c(Cl)c1
Solution: 250 to 500 nM

###

Test system: SREBP
assayProtocol: Reporter Screening Assay (SRE-luciferase reporter, HepG2)
Type: cell-based
settings: Homo sapiens; SRE-luciferase reporter HepG2 cells, 24 hours, 0.01 uM to 10 uM; read-out: I: Reporter Screening Assay (Ave EC50 (nM))
In this section we review reported EC50 values for a set of molecules.

CS(=O)(=O)Nc1ccc(-c2cc(-c3ccnc4c3OCCO4)cs2)c(Cl)c1 [Compound I-9017]; < 249 nM

Problem: What value of EC50 has been recorded for this entry: CS(=O)(=O)Nc1ccc(-c2cc(-c3ccnc(C4(CO)CC4)c3)cs2)c(Cl)c1 [Compound I-9002]
Solution: < 249 nM

Problem: Input Cc1sc(-c2ccc(NS(C)(=O)=O)cc2Cl)cc1-c1ccnc(CC(C)(C)O)c1 [Compound I-9091]
Solution: > 500 nM
